FYI, the data here is from patent US9102688B2.

target_under_test: human ferroportin (Homo sapiens, UniProt Q9NP59)
Sequence (Q9NP59 whole entry): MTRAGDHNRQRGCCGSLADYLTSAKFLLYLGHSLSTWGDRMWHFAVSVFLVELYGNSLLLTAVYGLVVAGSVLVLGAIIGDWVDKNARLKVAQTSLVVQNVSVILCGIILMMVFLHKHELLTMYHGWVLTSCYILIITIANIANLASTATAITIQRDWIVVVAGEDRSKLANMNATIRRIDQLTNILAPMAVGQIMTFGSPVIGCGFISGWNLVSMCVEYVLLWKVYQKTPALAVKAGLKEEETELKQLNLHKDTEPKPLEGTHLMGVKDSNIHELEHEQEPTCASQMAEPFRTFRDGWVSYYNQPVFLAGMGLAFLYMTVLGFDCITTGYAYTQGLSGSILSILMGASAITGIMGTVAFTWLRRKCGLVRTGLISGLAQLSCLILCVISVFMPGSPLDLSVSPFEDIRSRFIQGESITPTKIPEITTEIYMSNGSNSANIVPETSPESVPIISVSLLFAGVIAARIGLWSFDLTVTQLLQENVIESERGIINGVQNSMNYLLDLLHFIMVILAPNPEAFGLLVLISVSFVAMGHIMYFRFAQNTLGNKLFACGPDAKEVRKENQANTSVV
experiment_description: ferroportin internalization assay (inhibition of hepcidin-induced internalization of Fpn)
applied_conditions: MDCK-FPN-HaloTag cells, 100 nM hepcidin, overnight incubation; concentration range from 0.04 to 40 μM
Experimental: The hepcidin-antagonistic action of the sulfonaminoquinoline compounds of the present invention was determined by means of the “ferroportin internalization assay” described in the following. Organic compounds of low molecular weight which counteract the biological actions of hepcidin on its receptor, the iron exporter ferroportin (Fpn), were identified on the basis of their ability to inhibit hepcidin-induced internalization of Fpn in living cells. […]
log10 IC50 for assorted compounds
readout_label: log10 IC50 (log10 of the value in µM)

compound | test_result
O=[N+]([O-])c1ccccc1S(=O)(=O)Nc1cccc2cccnc12 | 0.46
O=S(=O)(Nc1cc(OC(F)(F)F)cc2cccnc12)c1cccnc1 | 0.58
CN1C(c2ccc(F)c(Cl)c2)c2ccc3cccnc3c2NS1(=O)=O (stereo not shown) | 0.57
CN(C)CCNc1cc2c(c3ncccc13)NS(=O)(=O)c1ccccc1-2 | 1.00
O=S(=O)(Nc1cc(F)c(Cl)c2cccnc12)c1ccccc1 | 0.18
COc1cc(NS(=O)(=O)c2cccnc2)c2ncccc2c1 | 0.45
O=S1(=O)Nc2c(cc(F)c3cccnc23)-c2ccccc21 | 0.14
COc1cc(NS(=O)(=O)c2ccc(C)cc2N)c2ncccc2c1 | -0.23
CC1c2ccc3cccnc3c2NS(=O)(=O)N1C (stereo not shown) | 0.67
O=S(=O)(Nc1cc(OC(F)(F)F)cc2cccnc12)c1ccc(C(F)(F)F)nc1 | 1.10
Cc1cnc2c(NS(=O)(=O)c3ccc(Cl)cc3F)cccc2c1 | 0.11
O=S(=O)(Nc1cc(OC(F)(F)F)cc2cccnc12)c1ccccn1 | 0.04
CN1C(c2ccc(F)c(F)c2)c2ccc3cccnc3c2NS1(=O)=O (stereo not shown) | -0.60
O=S(=O)(Nc1cccc2cccnc12)c1cccc(Cl)c1Cl | 0.85
Cc1cccc(S(=O)(=O)Nc2cccc3cccnc23)c1 | 0.32
Cc1ccc(S(=O)(=O)Nc2c(Cl)cc(Cl)c3cccnc23)cc1 | 1.90
CN1C(c2ccc(C(F)(F)F)nc2)c2ccc3cccnc3c2NS1(=O)=O (stereo not shown) | -0.02
O=S(=O)(Nc1ccc(Cl)c2cccnc12)c1cccnc1 | 0.25
O=S(=O)(Nc1cccc2cccnc12)c1cnccn1 | 0.28
